Exercise: state measured pIC50 for each of the compounds provided.
# STUDY_SYSTEM: EBP (Homo sapiens, UniProt Q15125)
# Construct: HEK293T cells were utilized as the source of EBP enzyme; endogenous in cells
# Sequence (Q15125 whole entry): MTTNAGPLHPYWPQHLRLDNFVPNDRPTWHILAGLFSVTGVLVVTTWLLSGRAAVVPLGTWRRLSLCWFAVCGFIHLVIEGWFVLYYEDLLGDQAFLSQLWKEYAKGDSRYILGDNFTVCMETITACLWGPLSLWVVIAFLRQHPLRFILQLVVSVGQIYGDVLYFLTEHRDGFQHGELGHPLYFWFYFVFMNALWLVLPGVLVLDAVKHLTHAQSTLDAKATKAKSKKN
# METHOD_NOTES: EBP Functional Assay (EBP immunoaffinity LC-MS assay)
# CONDITION_DETAILS: EBP enzyme from HEK293T cells; 30 min with inhibitor, then zymosterol-d5, 37° C., 4 h; percent conversion to dehydrolathosterol-d5 by LC-APCI MRM MS
pIC50: −log10 of the molar value.

Entry Cn1nc(C(F)F)cc1S(=O)(=O)N1CC2(CN(C3CCOCC3)C2)C1 needs its pIC50 filled in; supply it. 6.60 to 7.00

Look at each compound and report its pIC50.
1. O=S(=O)(c1cnc(C2CC2)s1)N1CCOC2(CN(C3CCOCC3)C2)C1
2. Cn1nc(C(F)(F)F)cc1S(=O)(=O)N1CC2(CN(CC3CCOC(C)(C)C3)C2)C1 (single isomer, unassigned) [Example 199]

1. 5.40 to 6.60
2. 6.60 to 7.00

Look at each compound and report its pIC50.
1. Cc1cc(C(F)(F)F)nc(C)c1S(=O)(=O)N1CC2(CN(CC3CCOC3)C2)C1 (racemic)
2. Cc1nc(C(C)(F)F)ccc1S(=O)(=O)N1CC2(CN(CC3CCOCC3)C2)C1

6.60 to 7.00
> 7.00
